B1: LINE1-full (parent)
chain: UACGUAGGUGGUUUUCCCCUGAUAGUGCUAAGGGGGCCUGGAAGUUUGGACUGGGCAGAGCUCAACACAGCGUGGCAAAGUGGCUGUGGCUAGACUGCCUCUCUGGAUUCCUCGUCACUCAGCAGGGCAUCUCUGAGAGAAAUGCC

variants of: B1; assay: self-cleavage, relative activity (ratio to wild type); higher = more cleavage; in vitro, sequencing; the parent is a self-cleaving ribozyme
Assign class by self-cleavage: not lower than 0.8 means Satisfied; lower than 0.8 means Not satisfied.

input.sequence	assigned.label
UACGUAGGUGGUCUUCCCCUGAUAGUGCUAAGGGUGCCUGGAAGUUUGGACUGGGCAGAGCUCAACACAGCGUGGCAAAGUGGCUGUGGCUAGACUGCCUCUCUGGAUUCCUCGUCACUCAGCAGGGCAUCUCUGAGAGAAAUGCC [U13C G35U]	Not satisfied
UACGUAGGUGGUUUUCCCCUGAUAGUGCUAAGGGGGCCUGGAAGUUAGGACUGGGCAGAGCUCAACACAGCGUGGCAAAGUGGCUGUUGCUAGACUGCCUCUCUGGAUUCCUCGUCACUCAGCAGGGCAUCUCUGAGAGAAAUGCC [U47A G88U]	Not satisfied
UACGUAGGUGGUUUUCCCCUGAUAGUGCUAAGGGGGCCUGGAAGUUUGGACUGGGCAGAGCUCAACACUGCGUGGCAAAGUGGCCGUGGCUAGACUGCCUCUCUGGAUUCCUCGUCACUCAGCAGGGCAUCUCUGAGAGAAAUGCC [A69U U85C]	Not satisfied

Form field: self-cleavage at least 0.8? Entry: UACGUAGGUGGUUUUCCCCUGAUAGUGCAAAGGGGGCCUGGAAGUUUGGACUGGGCAGAGCUCAACACAGCGUGGCAAAGUGGCUGUGGCUAGACUGCCUCUCUGGGUUCCUCGUCACUCAGCAGGGCAUCUCUGAGAGAAAUGCC [U29A A107G]
Satisfied

And what about the variant UACGUAGGUGGUUUUCCCCUGGUAGUGCUAAGGGGGCCUGGAAGUUUGGACUGGGCAGAGCUCAACACAGCGUGGCAAAGUGGCUGUGGCUAGGCUGCCUCUCUGGAUUCCUCGUCACUCAGCAGGGCAUCUCUGAGAGAAAUGCC [A22G A94G] ?
Not satisfied
